Measured values drawn from patent US20110021483A1 for this set.

experiment: physchem; conditions: water
experimental readout: solubility (µg/mL)
Write the answer as a number in µg/mL, unit excluded.

# solubility of [NH2][Pt]1([NH2])([Cl])([N+](=O)[O-])[O]C(=O)C(=O)[O]1 [I-A] = 2400
